- Test system: Plasmodium berghei
- protocol: Screen against P. berghei liver stage (PbLuc), transformed with Luciferase, at 10uM
- Assay type: functional, HepG2
- test_context: tested at 10 uM
In all, about 69,000 compounds went through this assay and about 8,600 (12%) showed an effect of 50% or more. Many of the other results were omitted from the sample, so strong results are more common in it than they were.
attribute_measured: INHIBITION (%)
Reply with just the number (in %).

[Q] Identify the measured INHIBITION of `Cc1n[nH]cc1CNC1CCN(c2ccc(F)cc2)CC1` for Plasmodium berghei.
[A] 49.9

[Q] Identify the measured INHIBITION of `O=C(Nc1ccc(CCN2CCOCC2)cc1)C1CCC1` for Plasmodium berghei.
[A] 26.25

[Q] Identify the measured INHIBITION of O=C(CSCC1CC1)N1CCC2(CCCN(C3CCOCC3)C2=O)C1 (configuration not stated) for Plasmodium berghei.
[A] 1.48

[Q] Identify the measured INHIBITION of `O=C(c1ccoc1)N1CCC(NCc2cccnc2)CC1` for Plasmodium berghei.
[A] 10.2

[Q] Identify the measured INHIBITION of `CCN(Cc1nc2c(cnn2C)c(=O)[nH]1)c1ccccc1` for Plasmodium berghei.
[A] 46.2

[Q] Identify the measured INHIBITION of `O=C(Nc1nc[nH]n1)c1cc(-c2ccc(F)cc2)n[nH]1` for Plasmodium berghei.
[A] 16

[Q] Identify the measured INHIBITION of Cc1csc(N2CCN(Cc3cccnc3)CC2C)n1 (configuration not stated) for Plasmodium berghei.
[A] 61.8

[Q] Identify the measured INHIBITION of `c1ccc(-c2cccc(N3CCC(NCCc4cscn4)CC3)c2)cc1` for Plasmodium berghei.
[A] 69.9

[Q] Identify the measured INHIBITION of `O=C1CCCN1c1cccc(N2CCC(NCCc3cscn3)CC2)c1` for Plasmodium berghei.
[A] 14.3

[Q] Identify the measured INHIBITION of c1coc(-c2noc(CN3CCCCC3Cn3cncn3)n2)c1 (configuration not stated) for Plasmodium berghei.
[A] 17.4

[Q] Identify the measured INHIBITION of `Cc1n[nH]cc1CNC1CCN(c2ccccc2)CC1` for Plasmodium berghei.
[A] 49.9

[Q] Identify the measured INHIBITION of `CCN(Cc1nc2c(cnn2C)c(=O)[nH]1)c1cccc(C)c1` for Plasmodium berghei.
[A] 11.2

----------
- Tested on: Plasmodium berghei
- protocol: Screen against P. berghei liver stage (PbLuc), transformed with Luciferase, at 10uM
- Assay type: functional, HepG2
- test_context: tested at 10 uM
The campaign covered roughly 69,000 compounds. About 8,600 (12%) showed an effect of 50% or more. Shown is part of a subset that was picked to be rich in strong results.
attribute_measured: INHIBITION (%)
Reply with just the number (in %).

[Q] So what does the record say about INHIBITION for O=C1CC(c2ccncc2)C2(CCN(Cc3ccc(F)cc3)CC2)N1 (configuration not stated) ?
[A] 1.71

[Q] So what does the record say about INHIBITION for Cc1cnn(CC2CCCN2CCCS(C)(=O)=O)c1 (configuration not stated) ?
[A] 13.3

[Q] So what does the record say about INHIBITION for `Cc1c(C(=O)N2CCC(c3nc(C)n4ccsc34)CC2)cnn1C` ?
[A] 42.6

[Q] So what does the record say about INHIBITION for `Cc1cc(OCC(=O)NCc2ccc(F)cc2)nnc1C` ?
[A] -3.08

[Q] So what does the record say about INHIBITION for `N#Cc1ccc(F)cc1Cn1cnc(C2CCC2)cc1=O` ?
[A] -22.3

[Q] So what does the record say about INHIBITION for `CC[C@@H](C)[C@H](NC(=O)CCn1cc(C(C)=O)c2ccccc21)C(=O)O` ?
[A] -27

[Q] So what does the record say about INHIBITION for `Cc1ccoc1C(=O)N1C[C@H]2CCC[C@@]2(COCc2ccncc2)C1` ?
[A] 41.8

[Q] So what does the record say about INHIBITION for `N#Cc1cc(Cn2cnc(C3CCC3)cc2=O)ccc1F` ?
[A] 74.3

[Q] So what does the record say about INHIBITION for `CC(C)=CCN1CCN(C(=O)C2CC2)CC1` ?
[A] 21.5

[Q] So what does the record say about INHIBITION for Cc1c(C2CCCN(C(=O)C3CC3)C2)n2c(nc1=O)CCC2 (configuration not stated) ?
[A] 28.4

[Q] So what does the record say about INHIBITION for CC(C)C1CCCN1CC(=O)NCc1ccc(OCC(N)=O)cc1 (configuration not stated) ?
[A] 12.8

[Q] So what does the record say about INHIBITION for CCOC(=O)C(C)Nc1cccc(COCc2ccco2)c1 (configuration not stated) ?
[A] 12.1

----------
- Tested on: Plasmodium berghei
- protocol: Screen against P. berghei liver stage (PbLuc), transformed with Luciferase, at 10uM
- Format: functional, HepG2
- test_context: tested at 10 uM
In all, about 69,000 compounds went through this assay and about 8,600 (12%) showed an effect of 50% or more. What follows is part of a selection rich in strong results, with near analogues and random picks from the rest.
Decide by INHIBITION: equal to or exceeding 30% means t, less means f.

[Q] Is reported INHIBITION greater than or equal to 30% here: `Cc1ncsc1CN1CC[C@H]2C(=O)N(c3ccccc3)CCO[C@H]2C1`
[A] f

[Q] Is reported INHIBITION greater than or equal to 30% here: CCc1n[nH]c(C2CN(C(=O)c3ccnc(C4CC4)n3)CCO2)n1 (stereo unspecified)
[A] t

[Q] Is reported INHIBITION greater than or equal to 30% here: `CN(C)CCO[C@H]1CN(C(=O)c2cscn2)[C@@H]2COC[C@H]12`
[A] f

[Q] Is reported INHIBITION greater than or equal to 30% here: CCCC(=O)Nc1cccc(C(=O)N(C)CCCC2CCCO2)c1 (stereo unspecified)
[A] t

[Q] Is reported INHIBITION greater than or equal to 30% here: `N#Cc1c(Cl)nsc1NCc1ccc(N2CCSCC2)cc1`
[A] t

[Q] Is reported INHIBITION greater than or equal to 30% here: `Cc1nc(N(C)C)ncc1C(=O)N[C@@H]1CCc2ccccc21`
[A] f

[Q] Is reported INHIBITION greater than or equal to 30% here: `CC(C)n1cnnc1CN(C)C(=O)CCn1cnc2ccccc2c1=O`
[A] f

[Q] Is reported INHIBITION greater than or equal to 30% here: `O=C(c1cccs1)N1CCN(CC2CC2)c2ncccc2C1`
[A] f

[Q] Is reported INHIBITION greater than or equal to 30% here: `Cc1nnc(NCc2cccnc2OCC(F)(F)F)c(C#N)c1C`
[A] f

[Q] Is reported INHIBITION greater than or equal to 30% here: CC(O)CNC(=O)NCc1cccnc1OC1CCCC1 (stereo unspecified)
[A] f

[Q] Is reported INHIBITION greater than or equal to 30% here: `CCOc1ncccc1CNc1nnc(C)c(C)c1C#N`
[A] f

----------
Provide the recorded INHIBITION for the entries that follow.
- Test system: Plasmodium berghei
- protocol: Screen against P. berghei liver stage (PbLuc), transformed with Luciferase, at 10uM
- Format: functional, HepG2
- test_context: tested at 10 uM
Screen size: about 69,000 compounds; about 8,600 (12%) showed an effect of 50% or more. Only a selection was taken, and strong results are over-represented in it overall.

[Q] Identify the measured INHIBITION of CN1CCCC1CCn1ccnc1-c1nc2ccccc2[nH]1 (stereo not drawn) for Plasmodium berghei.
[A] 53.9%

[Q] Identify the measured INHIBITION of CC(=O)N1CCCC1c1ccc(CN2CCOCC2)cn1 (stereo not drawn) for Plasmodium berghei.
[A] 35.625%

[Q] Identify the measured INHIBITION of `Cc1nccn1CCC1CCNCC1` for Plasmodium berghei.
[A] 39.6%

[Q] Identify the measured INHIBITION of `Cc1cc(C(=O)NCCC(=O)N2CCCc3ccccc32)no1` for Plasmodium berghei.
[A] 1.51%

[Q] Identify the measured INHIBITION of `CN(CC(N)=O)CC1(c2ccc(Br)cc2)CC1` for Plasmodium berghei.
[A] -28.4%

[Q] Identify the measured INHIBITION of Cn1ncc2c1CN(Cc1cccnc1)CC2COCC1CC1 (stereo not drawn) for Plasmodium berghei.
[A] 53.5%

[Q] Identify the measured INHIBITION of Cc1nc(C)n(CC2CN(CCC(=O)N3CCCCC3)CCO2)n1 (stereo not drawn) for Plasmodium berghei.
[A] 21.5%

[Q] Identify the measured INHIBITION of `c1cncc(N2CCCn3nnc(CN4CCCCC4)c3C2)c1` for Plasmodium berghei.
[A] 70.3%

[Q] Identify the measured INHIBITION of O=C(CCC1CCCO1)NCc1ccccc1Cn1cncn1 (stereo not drawn) for Plasmodium berghei.
[A] 34.7%

[Q] Identify the measured INHIBITION of OCC1CCCCN1CCn1ccnc1-c1nc2ccccc2[nH]1 (stereo not drawn) for Plasmodium berghei.
[A] 38.8%

[Q] Identify the measured INHIBITION of CNc1nc(CNC(=O)Nc2cccc(C(C)OC)c2)cs1 (stereo not drawn) for Plasmodium berghei.
[A] 13.957%

[Q] Identify the measured INHIBITION of CN1CCCC1CCn1ccnc1-c1ccc2ccccc2n1 (stereo not drawn) for Plasmodium berghei.
[A] 72.3%

[Q] Identify the measured INHIBITION of c1ccc(-c2noc(CCCN3CCCC3Cn3cccn3)n2)cc1 (stereo not drawn) for Plasmodium berghei.
[A] 45.7%
